Quick reference: AC50 of the listed items.
experiment: blockade of melanocortin 4 receptor signaling – cell-based, plate reader, cherry pick, counter-screen for LGR2 antagonist project, dose response (AID 743444); assay type: functional;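 also: transfected HEK 293 cells stimulated with alpha-MSH peptide; potency of inhibitors of the alpha-MSH evoked signal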
Activity calls are given as the source filed them. No rule for the calls is given here.

Cc1ccc(C)c(S(=O)(=O)N(C(=O)c2ccncc2)c2ccc(OC(=O)c3ccncc3)cc2)c1 : 1.9 µM (active)

*Q* Fill in: AC50 of C[C@H](CO)N1C[C@H](C)[C@H](CN(C)C(=O)Nc2ccc(F)cc2)OCCCC[C@H](C)Oc2ccc(NC(=O)C3CCCCC3)cc2C1=O is ___
*A* 65.8 µM (active)

*Q* Could you share which AC50 value was measured for CCCCCc1ccc(-c2ccc(C(=O)O)cc2)nc1 ?
*A* 14.1 µM (active)

*Q* Any idea what its AC50 is? The compound is CC1(C)CC(NC(=O)c2ccc(Cl)c(S(=O)(=O)N(Cc3ccccc3)c3ccccc3)c2)CC(C)(C)N1
*A* 29.4 µM (active)

*Q* State the recorded AC50 for this entry: O=C(Nc1cccc(O)c1)c1cc(-c2ccc3c(c2)OCO3)on1
*A* 5.8 µM (active)
